System: male dd mice
Assay: Muscle relaxant activity: traction test
Assay type: in vivo
Conditions: 150 mg/kg p.o., 1 hr, 5 mice per group
Source text: In this example, 5 male dd mice weighing 20±1 g were used as one group. Prior to the experiments, mice were placed on the rod having a diameter of 3 cm and rotating at 5 r.p.m. in the reverse direction of the rotation. […] The drugs were orally administered and the muscle relaxant activity with the passage of time was examined by the following tests. Traction test: Forefeet of the same mouse were placed on a wire to observe whether it falls or not. […]
measured-property: Number of dropped mice, traction test (mice)
Unit mice implied. Number only.

// known answers, use as guide
Cc1c(C(=O)N(C)C)oc2cc(Cl)ccc12 [Compound (B)]
5
Cc1c(C(=O)N(C)C)oc2ccc(Cl)cc12 [Compound (G)]
3
COc1cc(C)nc(-n2nc(C)cc2OC)n1 [Mepirizole, mepirizole, reference compound]
2
Cc1c(C(=O)N(C)C)oc2cccc(Cl)c12 [Compound (A)]
5
Cc1c(C(=O)N(C)C)oc2ccc(F)cc12 [Compound (D)]
4
COc1ccc2oc(C(=O)N(C)C)c(C)c2c1 [Compound (F)]
1

Alright, here's another compound for you.
Please give the measured Number of dropped mice, traction test for this compound: Cc1ccc2oc(C(=O)N(C)C)c(C)c2c1 [Compound (E)]
0
